Data provenance: PubChem BioAssay AID1159580

- ASSAY_SUMMARY: chemical genetic growth profiling, strain panel (AID 1159580);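 also: tested at 20 µM; growth read once vehicle control cultures reached saturation at 30 °C; 1 = growth at the plate median or of vehicle wells; lower values mean less growth of the strain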
- CONDITION_LABEL: S. cerevisiae deletion strains, growth OD, locus YNL128W, strain TEP1, hits give low values
Screen size: about 5,500 compounds; about 2,000 (36%) were called active. Another 18% or so got no clear call; they are omitted. Some of the results follow. Where a SMILES comes first, the peptide text is derived from it.

[
  {
    "COMPOUND": "CNc1ccc2oc(C[C@H]3O[C@@]4(CC[C@H]3C)O[C@H]([C@H](C)C(=O)c3ccc[nH]3)[C@H](C)C[C@H]4C)nc2c1C(=O)O",
    "normalized growth": 0.98
  },
  {
    "COMPOUND": "CC(=O)N[C@@H](CC(=O)O)C(=O)N[C@@H](CCC(=O)O)C(=O)O (Ac-Asp-Glu-OH)",
    "normalized growth": 1.02
  },
  {
    "COMPOUND": "COc1ccc2oc(-c3ccccc3)c(OC)c(=O)c2c1",
    "normalized growth": 0.942
  }
]

* * *

- ASSAY_SUMMARY: chemical genetic growth profiling, strain panel (AID 1159580);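 also: tested at 20 µM; growth read once vehicle control cultures reached saturation at 30 °C; 1 = growth at the plate median or of vehicle wells; lower values mean less growth of the strain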
- CONDITION_LABEL: S. cerevisiae deletion strains, growth OD, locus YLR330W, strain CHS5
In all, about 5,500 compounds went through this assay and about 2,000 (36%) were called active. About 18% were inconclusive and are not listed. Rule as the data show it: active = normalized growth mostly below about 0.91 (no sharp cut-off); inconclusive = no clear call, values can overlap the other calls; inactive = mostly above about 0.92. The list shows a part of the results.
Labels: active, inactive

[
  {
    "MOLECULE": "COc1cc(C)c2c(=O)cc(-c3ccccc3)oc2c1",
    "CLASSIFICATION": "inactive"
  },
  {
    "MOLECULE": "CC(=O)OC1CC(OC(C)=O)C2(C)C(CC(OC(C)=O)C3(C)C2CCC2(C)C(c4ccoc4)OC(=O)C4OC423)C1(C)C (centres undefined)",
    "CLASSIFICATION": "inactive"
  },
  {
    "MOLECULE": "Clc1ccc(C(c2ccccc2Cl)C(Cl)Cl)cc1 (centres undefined)",
    "CLASSIFICATION": "inactive"
  },
  {
    "MOLECULE": "NCCCC(=O)O",
    "CLASSIFICATION": "inactive"
  },
  {
    "MOLECULE": "FC(F)(F)c1cccc(N2CCNCC2)c1",
    "CLASSIFICATION": "inactive"
  },
  {
    "MOLECULE": "Clc1ccc(CSC(Cn2ccnc2)c2ccc(Cl)cc2Cl)cc1 (centres undefined)",
    "CLASSIFICATION": "active"
  },
  {
    "MOLECULE": "Clc1ccc(COC(Cn2ccnc2)c2ccc(Cl)cc2Cl)cc1 (centres undefined)",
    "CLASSIFICATION": "active"
  },
  {
    "MOLECULE": "COc1cc2c(cc1OC)C1(O)C(=O)c3ccc(O)c(C(=O)O)c3OC1CO2 (centres undefined)",
    "CLASSIFICATION": "inactive"
  },
  {
    "MOLECULE": "C1N2CN3CN1CN(C2)C3",
    "CLASSIFICATION": "inactive"
  },
  {
    "MOLECULE": "Cc1ccc(C(=O)c2ccc(CC(=O)O)n2C)cc1",
    "CLASSIFICATION": "inactive"
  },
  {
    "MOLECULE": "C[C@]12C=CC(=O)C=C1CCC1C2[C@@H](O)C[C@@]2(C)C1CC[C@]2(O)C(=O)CO (some centres undefined)",
    "CLASSIFICATION": "inactive"
  },
  {
    "MOLECULE": "N[C@@H](C(=O)O)[C@@H](O)[C@H](O)[C@H](O)CO",
    "CLASSIFICATION": "inactive"
  },
  {
    "MOLECULE": "OC[C@H]1O[C@@H](n2cnc3c(NCc4ccco4)ncnc32)[C@H](O)[C@@H]1O",
    "CLASSIFICATION": "inactive"
  },
  {
    "MOLECULE": "NCCCCNCCCN",
    "CLASSIFICATION": "inactive"
  },
  {
    "MOLECULE": "CC(=O)NCCc1c[nH]c2ccc(O)cc12",
    "CLASSIFICATION": "inactive"
  },
  {
    "MOLECULE": "CC(=O)O[C@H]1C[C@@]2(C)[C@@H](C[C@@H](O)C3[C@]2(C)CC[C@H]2[C@H](C)[C@H](O)CC[C@]32C)/C1=C(/CCC=C(C)C)C(=O)O (some centres undefined)",
    "CLASSIFICATION": "inactive"
  },
  {
    "MOLECULE": "COc1c(C)c2c(c(O)c1C/C=C(\\C)CCC(=O)O)C(=O)OC2",
    "CLASSIFICATION": "active"
  },
  {
    "MOLECULE": "O=C(O)C1CCCNC1 (centres undefined)",
    "CLASSIFICATION": "inactive"
  },
  {
    "MOLECULE": "CC(C)/C(O)=C1/C(=O)O[C@@H](c2ccoc2)[C@]2(C)C(O)[C@@H](O)[C@@]34OC5(C)OC67CC(C)(C(O)[C@]6(O)[C@@H](O)[C@]3(O5)C12)[C@H](CC(=O)O)[C@]74C (some centres undefined)",
    "CLASSIFICATION": "inactive"
  },
  {
    "MOLECULE": "CC1OC(O[C@H]2/C=C/C=C/C=C/C=C/C=C/C=C/C=C/[C@H](C)[C@@H](O)[C@@H](C)[C@H](C)OC(=O)CC(O)CC(O)CCC(O)C(O)CC(O)C[C@]3(O)C[C@H](O)C(C(=O)O)C(C2)O3)C(O)[C@H](N)C1O (some centres undefined)",
    "CLASSIFICATION": "inactive"
  },
  {
    "MOLECULE": "COc1ccc(CCC(=O)c2c(O)cc(O[C@@H]3O[C@H](CO)C(O)[C@H](O)C3O[C@@H]3O[C@@H](C)[C@H](O)[C@@H](O)[C@H]3O)cc2O)cc1O (some centres undefined)",
    "CLASSIFICATION": "inactive"
  },
  {
    "MOLECULE": "Cc1cccc(C)c1NC(=O)C1CCCCN1C (centres undefined)",
    "CLASSIFICATION": "inactive"
  },
  {
    "MOLECULE": "CC(=O)O[C@H]1C[C@@H](OC(C)=O)C(C)(C)C2C[C@@H](O)[C@]3(C)C(CC[C@@]4(C)[C@H](c5ccoc5)OC(=O)[C@H]5O[C@]543)[C@]21C (some centres undefined)",
    "CLASSIFICATION": "inactive"
  },
  {
    "MOLECULE": "Cc1onc(-c2ccccc2)c1-c1ccc(S(N)(=O)=O)cc1",
    "CLASSIFICATION": "inactive"
  },
  {
    "MOLECULE": "Fc1ccc([C@@H]2CCNC[C@H]2COc2ccc3c(c2)OCO3)cc1",
    "CLASSIFICATION": "inactive"
  },
  {
    "MOLECULE": "COc1ccc2c(c1)OCC(Cc1ccc(OC)c(OC(C)=O)c1)C2=O (centres undefined)",
    "CLASSIFICATION": "inactive"
  },
  {
    "MOLECULE": "NCC[C@@H](O)C(=O)N[C@@H]1C[C@H](N)[C@@H](O[C@H]2O[C@H](CN)[C@@H](O)[C@H](O)[C@H]2O)[C@H](O)[C@H]1O[C@H]1O[C@H](CO)[C@@H](O)[C@H](N)C1O (some centres undefined)",
    "CLASSIFICATION": "inactive"
  },
  {
    "MOLECULE": "Clc1ccc(COC(Cn2ccnc2)c2ccc(Cl)cc2Cl)c(Cl)c1 (centres undefined)",
    "CLASSIFICATION": "active"
  },
  {
    "MOLECULE": "CC(=O)N[C@@H](CCC(=O)O)C(=O)O",
    "CLASSIFICATION": "inactive"
  },
  {
    "MOLECULE": "CC(=O)OC1CC(O)C(C)(C)C2CC(=O)C3(C)C(CCC4(C)C(c5ccoc5)OC(=O)C5OC543)C12C (centres undefined)",
    "CLASSIFICATION": "inactive"
  },
  {
    "MOLECULE": "O=c1[nH]c(=O)n(C2C[C@H](O)[C@@H](CO)O2)cc1C(F)(F)F (some centres undefined)",
    "CLASSIFICATION": "inactive"
  },
  {
    "MOLECULE": "COC(=O)/C(C)=C\\CC12OC(C)(C)C3CC(C=C4C(=O)c5c(OC)c6c(c(CC=C(C)C)c5OC431)OC(C)(CCC=C(C)C)C=C6)C2=O (centres undefined)",
    "CLASSIFICATION": "inactive"
  },
  {
    "MOLECULE": "NC1(C(=O)O)CCCC1",
    "CLASSIFICATION": "inactive"
  },
  {
    "MOLECULE": "C=NC(C(=O)NC1C(=O)N2C1SC(C)(C)C2C(=O)O)c1ccccc1 (centres undefined)",
    "CLASSIFICATION": "inactive"
  },
  {
    "MOLECULE": "NCCCCC(=O)O",
    "CLASSIFICATION": "inactive"
  },
  {
    "MOLECULE": "NC(=O)NC1NC(=O)NC1=O (centres undefined)",
    "CLASSIFICATION": "inactive"
  },
  {
    "MOLECULE": "O=C(O)CCCCCCCC(=O)O",
    "CLASSIFICATION": "inactive"
  },
  {
    "MOLECULE": "COc1ccc2c(c1)OCC(Cc1ccc(OC)c(O)c1)C2=O (centres undefined)",
    "CLASSIFICATION": "inactive"
  },
  {
    "MOLECULE": "CC(=O)O[C@H]1CC[C@@]2(C)C(C[C@@H](OC(C)=O)[C@]3(C)C2CC[C@@]2(C)[C@H](c4ccoc4)OC(=O)[C@H]4O[C@]423)C1(C)C (some centres undefined)",
    "CLASSIFICATION": "inactive"
  }
]
